Experiment: NCI Yeast Anticancer Drug Screen. Data for the mlh1 rad18 strain (AID 175)
Conditions: S. cerevisiae mlh1 rad18 strain growth inhibition; at 5.0 µM (retest, dose inferred, filed as 0.5); hits give high values
The panel holds about 79,000 compounds, 15% with a hit somewhere; the sample as a whole holds those more often.
Kindly state growth inhibition for each of the entries shown.
// units = %; emit number, no label

# get_value(readout='growth inhibition', item= N#CC(Cl)(Cl)CCl )
2

# get_value(readout='growth inhibition', item= O=C(N/N=C/c1cc(Br)cc(Br)c1[O-])c1ccccc1O.O=C(N/N=C/c1cc(Br)cc(Br)c1[O-])c1ccccc1O.[Ni+2] )
96

# get_value(readout='growth inhibition', item= COC1CC2C=C(C)/C=C/C=C/C(=O)NC(c3ccccc3)C/C=C/CCC(O)CC(=O)C2=C1O (centres undefined) )
98

# get_value(readout='growth inhibition', item= CC(C)CC(C)(c1ccc(O)cc1)c1ccc(O)cc1 )
68

# get_value(readout='growth inhibition', item= Cc1cc(N(CCCl)CCCl)ccc1C=Nc1ccc(-c2csc(Cc3ccccc3)n2)c(Cl)c1 )
-17

# get_value(readout='growth inhibition', item= Nc1nc2ncnc(N)c2nc1-c1ccc(N(CCCl)CCCl)cc1 )
-5

# get_value(readout='growth inhibition', item= C/C=C(\C)C(=O)OC1CC(C)(C)CC2C3=CCC4C5(C)CCC(=O)C(C)(C)C5CCC4(C)C3(C)CCC12C(=O)O (centres undefined) (tested in a mixture with another compound) )
26

# get_value(readout='growth inhibition', item= CCOC(=O)CNC(=O)C1C2c3ccccc3C(c3ccccc32)C1C(=O)O (centres undefined) )
-1

# get_value(readout='growth inhibition', item= C[CH2][Sn]([CH2]C(=O)OC)([CH2]C(=O)OC)[c]1ccccc1 )
97
